# AC50 measurements, system: UniProt P32238
# Sequence (P32238 whole entry): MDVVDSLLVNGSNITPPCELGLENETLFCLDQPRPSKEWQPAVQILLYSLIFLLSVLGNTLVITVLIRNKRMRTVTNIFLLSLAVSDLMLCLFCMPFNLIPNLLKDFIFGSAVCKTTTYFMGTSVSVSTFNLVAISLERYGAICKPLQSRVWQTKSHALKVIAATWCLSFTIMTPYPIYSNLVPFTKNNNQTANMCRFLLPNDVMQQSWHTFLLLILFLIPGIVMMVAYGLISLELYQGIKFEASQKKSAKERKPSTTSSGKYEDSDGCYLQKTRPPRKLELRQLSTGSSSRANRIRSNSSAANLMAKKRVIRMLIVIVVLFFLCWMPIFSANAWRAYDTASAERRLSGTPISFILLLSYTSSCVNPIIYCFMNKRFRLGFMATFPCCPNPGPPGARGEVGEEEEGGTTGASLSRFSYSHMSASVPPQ

Here are 2 compounds together with their reported answers.
COMPOUND	AC50
O=[N+]([O-])c1cn2c(n1)OC[C@@H](OCc1ccc(OC(F)(F)F)cc1)C2	> 30 µM
CCN(CC)C(=O)N[C@H]1C[C@@H]2c3cccc4[nH]cc(c34)C[C@H]2N(C)C1 [TERGURIDE]	> 30 µM

The record that follows has no AC50 shown yet.
Input: Identify the reported AC50 for the following entry. CCCN(CCC)C(=O)C(CCC(=O)O)NC(=O)c1ccccc1 (stereo unspecified) [PROGLUMIDE]
Output: > 30 µM

###

molecular target: Sodium-dependent dopamine transporter (Homo sapiens); also: assay procedure not described here
Sequence (Q01959 whole entry): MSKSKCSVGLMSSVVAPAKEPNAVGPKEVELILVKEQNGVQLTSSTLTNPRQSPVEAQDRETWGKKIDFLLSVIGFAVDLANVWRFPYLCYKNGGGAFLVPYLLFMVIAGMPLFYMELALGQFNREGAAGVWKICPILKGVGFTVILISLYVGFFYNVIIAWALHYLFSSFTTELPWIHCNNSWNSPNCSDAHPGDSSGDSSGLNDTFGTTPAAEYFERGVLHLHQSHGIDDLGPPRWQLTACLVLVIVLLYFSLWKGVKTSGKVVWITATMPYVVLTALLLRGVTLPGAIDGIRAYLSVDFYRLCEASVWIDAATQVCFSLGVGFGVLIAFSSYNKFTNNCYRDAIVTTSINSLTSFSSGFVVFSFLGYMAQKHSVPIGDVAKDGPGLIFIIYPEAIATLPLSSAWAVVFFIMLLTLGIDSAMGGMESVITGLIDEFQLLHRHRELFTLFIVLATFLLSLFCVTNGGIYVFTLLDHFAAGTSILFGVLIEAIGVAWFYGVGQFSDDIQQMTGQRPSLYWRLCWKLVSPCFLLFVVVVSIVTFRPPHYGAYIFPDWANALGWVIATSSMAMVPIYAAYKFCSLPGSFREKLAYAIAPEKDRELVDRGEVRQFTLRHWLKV
OBSERVED PROPERTY: AC50

Here are 3 molecules together with their reported answers.
MOLECULE	MEASURED ON	AC50
C[C@@H]1O[C@@H](O[C@@H]2C=C3CC[C@@H]4[C@H](CC[C@]5(C)[C@@H](c6ccc(=O)oc6)CC[C@]45O)[C@@]3(C)CC2)[C@H](O)[C@H](O)[C@H]1O [PROSCILLARIDIN]	Sodium-dependent dopamine transporter (Homo sapiens)	> 30 µM
Cc1c(OCC(F)(F)F)ccnc1C[S+]([O-])c1nc2ccccc2[nH]1 (stereo unspecified) [LANSOPRAZOLE]	Sodium-dependent dopamine transporter (Homo sapiens)	> 10 µM
CC(=O)O[C@H]1C[C@@H]2CC[C@@H]3[C@H](CC[C@@]4(C)[C@H]3C[C@H]([N+]3(C)CCCCC3)[C@@H]4OC(C)=O)[C@@]2(C)C[C@@H]1N1CCCCC1 [VECURONIUM]	Sodium-dependent dopamine transporter (Homo sapiens)	> 30 µM

Input: Identify the reported AC50 for the following entry. CN(C)/N=N/c1[nH]cnc1C(N)=O [DACARBAZINE]
Output: > 10 µM

Input: Identify the reported AC50 for the following entry. NS(=O)(=O)Cc1noc2ccccc12 [ZONISAMIDE]
Output: > 10 µM

Input: Identify the reported AC50 for the following entry. O=C(NCCN1CCOCC1)c1ccc(Cl)cc1 [MOCLOBEMIDE]
Output: > 10 µM
